These data points were gathered from patent US20260356851A1.

- target-of-assay: pERK1/2 (Thr202/Tyr204), NCI-1H441 (KRAS G12V) (Homo sapiens, UniProt P01116, G12V)
- Construct: pERK1/2 HTRF read-out
- Sequence (P01116 1-188 isoform P01116-2 G12V): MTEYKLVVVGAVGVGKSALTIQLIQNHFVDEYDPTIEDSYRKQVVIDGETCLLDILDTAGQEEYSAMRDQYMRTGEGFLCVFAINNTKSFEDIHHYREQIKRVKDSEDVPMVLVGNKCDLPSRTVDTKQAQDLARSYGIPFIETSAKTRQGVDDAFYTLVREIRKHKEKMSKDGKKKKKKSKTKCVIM
- assay: Assay of intracellular pERK1/2 (Thr202/Tyr204) phosphorylation in NCI-H441 cells (KRAS G12V)
- Format: cell-based
- measurement-context: pERK1/2, 2 days, read-out: NCI-H441 (KRAS G12V) IC50
pIC50: −log10 of the molar value.
quantity-name: pIC50

Worked examples, 3 compounds total:
[ask] Identify the measured pIC50 of CC(c1cccnc1N)N1CCOc2nc(-c3cc(O)cc(Cl)c3C3CC3)c(F)c3nc(OC[C@@H]4CCCN4C)nc1c23 (single isomer, unassigned) [Compound 32] for pERK1/2 (Thr202/Tyr204), NCI-1H441 (KRAS G12V) (Homo sapiens, UniProt P01116, G12V).
[reply] 8.22

[ask] Identify the measured pIC50 of CC(c1cccnc1N)N1CCOc2nc(-c3cc(N)ccc3C(F)(F)F)c(F)c3nc(OC[C@@H]4CCCN4C)nc1c23 (stereo partly drawn) for pERK1/2 (Thr202/Tyr204), NCI-1H441 (KRAS G12V) (Homo sapiens, UniProt P01116, G12V).
[reply] 7.60

[ask] Identify the measured pIC50 of CC(c1cccnc1N)N1CCOc2nc(-c3cc(O)cc(F)c3C3CC3)c(F)c3nc(OC[C@@H]4CC(F)(F)CN4C)nc1c23 (stereo partly drawn) [Compound 45] for pERK1/2 (Thr202/Tyr204), NCI-1H441 (KRAS G12V) (Homo sapiens, UniProt P01116, G12V).
[reply] 7.28

[P] C#Cc1c(F)ccc2cc(O)cc(-c3nc4c5c(nc(OC[C@@]67CCCN6C[C@H](F)C7)nc5c3F)N(C(C)c3cccnc3N)[C@@H](C)CO4)c12 (single isomer, unassigned) [Compound 274]
[Q] CC(c1cccnc1N)N1CCOc2nc(-c3cc(N)cc(Cl)c3C(F)(F)F)c(F)c3nc(OC[C@@H]4CCCN4C)nc1c23 (single isomer, unassigned) [Compound 98]
[ask] Please indicate which entry, P or Q , has the lower recorded pIC50 value. # reply format: chosen label
[reply] P
(P: 8.10, Q: 9.30)

[P] CC(c1cccnc1N)N1CCOc2nc(-c3c(C(F)(F)F)ccc4[nH]ncc34)c(F)c3nc(OC[C@@H]4CC(F)(F)CN4C)nc1c23 (stereo partly drawn)
[Q] CC(c1cccnc1N)N1CCOc2nc(-c3cc(N)cc(F)c3C(F)(F)F)c(F)c3nc(OC[C@@H]4CCCN4C)nc1c23 (single isomer, unassigned) [Compound 90]
[R] Cc1c(F)c(N)cc(-c2nc3c4c(nc(OCC56CC(F)CN5CC(F)C6)nc4c2F)N(C(C)c2cccnc2N)CCO3)c1C(F)(F)F (single isomer, unassigned; diastereomer 1) [Compound 241]
[S] CC(c1cccnc1N)N1CCOc2nc(-c3cc(N)c(F)c(Cl)c3C(F)(F)F)c(F)c3nc(OCC45CC(F)CN4CC(F)C5)nc1c23 (single isomer, unassigned; diastereomer 2) [Compound 246]
[ask] Parameters: sort_field (pIC50), sort_dir (desc). Respond with the label ranking, as requested.
[reply] R, S, Q, P
(R: 9.05, S: 8.70, Q: 8.22, P: 7.51)
